The following compounds are listed with their measured growth values.
System: NCI-H460 lung
Assay: NCI-60 one-dose screen, 48 h (100 = growth as untreated, 0 = no growth, -100 = all killed)
Conditions: 10 µM unless noted
Experimental: Growth inhibition of the NCI-H460 human Non-Small Cell Lung tumor cell line is measured as a screen for anti-cancer activity. Cells are grown in 96 well plates and exposed to the test compound for 48 hours. Compounds are tested at a single concentration, which is 10^-5 M for most compounds. The reported endpoint is percent growth (GI% or GIPRCNT), where numbers from 0 - 100% represent growth inhibition, and numbers from -100% - 0 represent cell death. […]
About 83,000 compounds went through this panel and 20% of them were active in at least one assay; those are over-represented in the sample as a whole.
Please give a number only; it is taken to be in %.

CCOC(=O)C1=C(N)Oc2c(sc3c(F)cccc23)C1c1ccc(O)cc1 (stereo not given) : 30.4

## Input Please report the measured growth for C=C(C)[C@@H]1CC[C@]2(C(=O)O)CC[C@]3(C)[C@H](CC[C@@H]4[C@@]5(C)CCC(NC(=O)c6cccc(OC(C)=O)c6OC(C)=O)C(C)(C)[C@@H]5CC[C@]43C)[C@@H]12 (stereo not given in full) tested on NCI-H460 lung.
## Output -39.4

## Input Recall the reported growth of COc1ccccc1N1CCCCC1 on NCI-H460 lung and write it down.
## Output 109

====

System: A498 renal
Assay: NCI-60 one-dose screen, 48 h
Conditions: 10 µM unless noted
This is part of a sample that, as a whole, favours compounds with a hit. Of some 83,000 tested, about 20% had one in any assay. Calls of active or inactive are those of the source. The calls were made as follows: active = growth percent below 10; inactive = the rest.
Hello, when you answer, please use one of the following outcomes: active, inactive

Consider the following illustrative entries.
CCOc1ccc(NC(=O)CSc2oc(-c3ccccc3)nc2S(=O)(=O)c2ccc(C)cc2)cc1 : inactive
CNC(=O)c1[nH]cc(-c2ccc(OC)cc2)c1-c1cc(OC)c2c(c1OC)OCO2 : inactive
CCOC(=O)c1csc(NC(=O)COc2ccc(/C=C3\Oc4ccccc4C3=O)cc2)n1 : inactive

In the following, a different compound is considered.
## Input Give the logged outcome of this assay for the following compound: CCN1CCN(C(=O)[C@]23CCC(C)(C)C[C@@H]2C2=CC[C@@H]4[C@@]5(C)CCC(=O)C(C)(C)[C@@H]5CC[C@@]4(C)[C@]2(C)CC3)CC1
## Output active

====

Tested on: CAKI-1 renal
Assay: NCI-60 one-dose screen, 48 h (100 = growth as untreated, 0 = no growth, -100 = all killed)
Conditions: 10 µM unless noted
Procedure: Growth inhibition of the CAKI-1 human tumor cell line is measured as a screen for anti-cancer activity. Cells are grown in 96 well plates and exposed to the test compound for 48 hours. Compounds are tested at a single concentration, which is 10^-5 M for most compounds. The reported endpoint is percent growth (GI% or GIPRCNT), where numbers from 0 - 100% represent growth inhibition, and numbers from -100% - 0 represent cell death. For example, a value of 40 represents 60% growth inhibition. […]
This is part of a sample that, as a whole, favours compounds with a hit. Of some 83,000 tested, about 20% had one in any assay.
Labelling field: enter MET if recorded growth is less than 40%. Enter NOT MET if it equals or exceeds that cut-off.

## Input Here's an entry: O=C(Nc1ccc(OS(=O)(=O)c2ccc(F)cc2)cc1)C1CCCCCC1 . Is its growth below 40%?
## Output NOT MET
